Values from paper PMC7400135

Measured IC50, listed per entry for reference.
tested_target: recombinant Mycobacterium marinum N-acetyltransferase (MMNAT) (Mycobacterium marinum, UniProt B2HIZ6)
Sequence (B2HIZ6 entry or part of it): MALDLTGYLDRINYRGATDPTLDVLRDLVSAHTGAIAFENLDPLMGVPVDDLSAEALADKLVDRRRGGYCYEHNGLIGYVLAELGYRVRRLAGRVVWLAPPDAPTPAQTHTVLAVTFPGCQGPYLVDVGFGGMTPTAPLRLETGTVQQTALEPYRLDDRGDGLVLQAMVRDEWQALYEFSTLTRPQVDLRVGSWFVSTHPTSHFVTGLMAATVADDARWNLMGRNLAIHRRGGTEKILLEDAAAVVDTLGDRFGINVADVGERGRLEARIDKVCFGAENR
experimental_protocol: Inhibition of recombinant MMNAT (DTNB assay)
Type: biochemical
test_context: value in brackets, same IC50 in mg/L; read-out: IC50 MMNAT

compound: CCN(CC)c1ccc(C(=O)/C=C/c2ccc([N+](=O)[O-])o2)cc1 [Compound 3]
unit_string: nM
IC50: 134

compound: O=C(/C=C/c1ccc([N+](=O)[O-])o1)c1ccc(N2CCOCC2)cc1 [Compound 1]
unit_string: nM
IC50: 207

compound: O=C(/C=C/c1ccc([N+](=O)[O-])o1)c1ccc(N2CCCCC2)cc1 [Compound 2]
unit_string: nM
IC50: 270
